targetUnderTest: PI3K alpha (Homo sapiens (Human), UniProt P42336)
Sequence (P42336 other isoform, or with tags, fused parts or gaps): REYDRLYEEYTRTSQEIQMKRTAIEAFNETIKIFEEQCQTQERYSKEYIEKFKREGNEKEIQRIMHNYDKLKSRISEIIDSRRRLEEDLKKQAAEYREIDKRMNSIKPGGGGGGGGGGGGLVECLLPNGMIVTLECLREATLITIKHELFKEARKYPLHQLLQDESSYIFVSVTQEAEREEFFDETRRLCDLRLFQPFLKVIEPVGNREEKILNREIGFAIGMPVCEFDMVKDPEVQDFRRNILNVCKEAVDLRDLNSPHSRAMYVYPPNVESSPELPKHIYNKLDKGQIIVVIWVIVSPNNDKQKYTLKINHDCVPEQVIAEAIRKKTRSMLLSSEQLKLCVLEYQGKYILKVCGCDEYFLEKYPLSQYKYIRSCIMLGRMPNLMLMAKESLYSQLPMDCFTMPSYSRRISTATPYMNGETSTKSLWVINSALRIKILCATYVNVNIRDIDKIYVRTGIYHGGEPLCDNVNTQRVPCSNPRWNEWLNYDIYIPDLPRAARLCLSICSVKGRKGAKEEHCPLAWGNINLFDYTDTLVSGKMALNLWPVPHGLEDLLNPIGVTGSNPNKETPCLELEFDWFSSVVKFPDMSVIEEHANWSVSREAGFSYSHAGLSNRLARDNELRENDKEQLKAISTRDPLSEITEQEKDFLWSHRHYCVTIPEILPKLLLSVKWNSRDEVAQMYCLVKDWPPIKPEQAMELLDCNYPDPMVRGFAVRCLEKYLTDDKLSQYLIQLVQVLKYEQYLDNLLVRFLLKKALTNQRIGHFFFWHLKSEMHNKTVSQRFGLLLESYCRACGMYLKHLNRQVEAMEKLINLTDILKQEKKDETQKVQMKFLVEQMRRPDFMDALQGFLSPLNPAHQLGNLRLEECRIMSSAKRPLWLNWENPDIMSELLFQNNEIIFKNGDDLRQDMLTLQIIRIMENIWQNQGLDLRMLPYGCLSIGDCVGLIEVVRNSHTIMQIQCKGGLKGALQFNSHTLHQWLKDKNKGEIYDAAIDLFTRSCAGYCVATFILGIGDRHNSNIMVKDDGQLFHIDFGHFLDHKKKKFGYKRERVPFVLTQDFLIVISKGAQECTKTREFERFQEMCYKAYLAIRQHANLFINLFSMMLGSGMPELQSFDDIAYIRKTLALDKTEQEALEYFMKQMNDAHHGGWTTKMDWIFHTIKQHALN
assayProtocol: Enzymatic PI3K alpha isoform inhibition (lipid kinase, Kinase-Glo luminescence)
Type: biochemical
measurementParameters: enzymatic assay
pIC50: −log10 of the molar value.
So basically: pIC50 at 6 or higher? That is 1 (yes). Lower than 6? That is 0 (no).

Example entries begin here.
{"molecule": "COc1ncc(N2CCc3ncnc(O[C@H]4CCN(C(=O)c5cn(C)cn5)C4)c3C2)cc1C", "assignedLabel": "0 (no)"}
{"molecule": "COc1ncc(N2CCc3ncnc(O[C@H]4CCN(C(=O)c5cocn5)C4)c3C2)cc1C", "assignedLabel": "0 (no)"}
{"molecule": "COc1ncc(N2CCc3ncnc(O[C@H]4CCN(C(=O)c5cnn(C)c5)C4)c3C2)cc1C#N", "assignedLabel": "0 (no)"}
{"molecule": "COc1ncc(N2CCc3ncnc(N[C@H]4CCN(C(=O)c5cnco5)C4)c3C2)cc1C(F)(F)F", "assignedLabel": "1 (yes)"}
{"molecule": "COc1ncc(N2CCc3ncnc(N[C@H]4CCN(C(=O)[C@H]5CC[C@H](O)CC5)C4)c3C2)cc1C(F)(F)F (single isomer, unassigned)", "assignedLabel": "1 (yes)"}
{"molecule": "COc1ncc(N2CCc3ncnc(N[C@H]4CCN(C(=O)C5CCOCC5)C4)c3C2)cc1C(F)(F)F", "assignedLabel": "1 (yes)"}
{"molecule": "COc1ncc(N2CCc3ncnc(O[C@H]4CCN(C(=O)C5CCCC5)C4)c3C2)cc1C#N", "assignedLabel": "0 (no)"}
{"molecule": "COc1ncc(N2CCc3ncnc(O[C@H]4CCN(C(=O)c5ccn(C)n5)C4)c3C2)cc1C#N", "assignedLabel": "0 (no)"}

Qu. Entry `COc1ncc(N2CCc3ncnc(O[C@H]4CCN(C(=O)c5ccc(=O)[nH]c5)C4)c3C2)cc1C` : is its pIC50 no less than 6?
Ans. 0 (no)

Qu. Confirm if pIC50 reported for the molecule `COc1ncc(N2CCc3ncnc(O[C@H]4CCN(C(=O)C5CCS(=O)(=O)CC5)C4)c3C2)cc1C(F)(F)F` is 6 or above.
Ans. 1 (yes)

Qu. Could you tell me if the measured pIC50 of `COc1ncc(N2CCc3ncnc(O[C@H]4CCN(C(=O)CC5CCOCC5)C4)c3C2)cc1C#N` reaches 6 or more?
Ans. 0 (no)

Qu. Given the entry `COc1ncc(N2CCc3ncnc(O[C@H]4CCN(C(=O)c5cn[nH]c5)C4)c3C2)cc1C(F)(F)F` , answer whether its pIC50 meets or surpasses 6.
Ans. 1 (yes)

Qu. Kindly determine if pIC50 recorded for `COc1ncc(N2CCc3ncnc(O[C@H]4CCN(C(=O)c5cn(C)nc5C)C4)c3C2)cc1C(F)(F)F` is above or exactly 6.
Ans. 1 (yes)

Qu. pIC50 >= 6 for COc1ncc(N2CCc3ncnc(O[C@H]4CCN(C(=O)C5CC(OC)C5)C4)c3C2)cc1C (stereo partly shown) ?
Ans. 0 (no)

Qu. For this molecule, is measured pIC50 6 or higher? `COc1cc(N2CCc3ncnc(O[C@H]4CCN(C(=O)c5cocn5)C4)c3C2)cnc1OC`
Ans. 1 (yes)

Qu. Please indicate if the recorded pIC50 for `O=C(C1CCOCC1)N1CC[C@H](Oc2ncnc3c2CN(c2cnc4ccccc4c2)CC3)C1` meets or exceeds 6.
Ans. 0 (no)
